Attribute: Kd
Biological target: UniProt P01116
Experiment: Binding to KRAS by surface plasmon resonance (SPR), Single Cycle Kinetics
Details: SPR, Single Cycle Kinetics; GDP-bound KRAS wild-type protein
experimental readout: Kd (nM)

[[record]]
entry_smiles = "CCO[C@@H]1C[C@H]2C(=O)NC3(CCC3)C(=O)N(C)[C@@H](C3CCCC3)C(=O)N(C)[C@H](C(=O)N(C)C)CC(=O)N(C)[C@@H](COCC(F)(F)F)C(=O)N[C@@H]([C@@H](C)CC)C(=O)N(C)CC(=O)N(C)[C@H]3C/C=C\\CCN(C3=O)[C@@H](Cc3ccc(C(F)(F)F)cc3)C(=O)N(C)CC(=O)N[C@@H](CCc3cc(F)c(C(F)(F)F)c(F)c3)C(=O)N2C1"
readout_value = 0.046

[[record]]
entry_smiles = "C=CC[C@H]1C(=O)N[C@@H]([C@@H](C)CC)C(=O)N(C)CC(=O)N(C)[C@H]2C/C=C\\CCN(C2=O)[C@@H](CC2CCC(F)(F)CC2)C(=O)N(C)CC(=O)N[C@@H](CCc2cc(F)c(C(F)(F)F)c(F)c2)C(=O)N2C[C@H](OCC)C[C@H]2C(=O)NC2(CCC2)C(=O)N(C)[C@@H](C2CCCC2)C(=O)N(C)[C@H](C(=O)N(C)C)CC(=O)N1C"
readout_value = 0.096


---

Molecular target: GDP-bound KRAS wild-type protein (Homo sapiens, UniProt P01116)
Assay: Binding to KRAS by surface plasmon resonance (SPR), Single Cycle Kinetics
Settings: SPR, Single Cycle Kinetics; GDP-bound KRAS wild-type protein
pKd: −log10 of the molar value.
experimental readout: pKd

[[record]]
entry_smiles = "CCO[C@@H]1C[C@H]2C(=O)NC3(CCC3)C(=O)N(C)[C@@H](C3CCCC3)C(=O)N(C)[C@H](C(=O)N(C)C)CC(=O)N(C)[C@@H](CSC)C(=O)N[C@@H]([C@@H](C)CC)C(=O)N(C)CC(=O)N(C)[C@H]3C/C=C\\CCN(C3=O)[C@@H](CC3CCCCC3)C(=O)N(C)CC(=O)N[C@@H](CCc3cc(F)c(C(F)(F)F)c(F)c3)C(=O)N2C1"
experimental_readout = "pKd"
readout_value = 9.89

[[record]]
entry_smiles = "CCO[C@@H]1C[C@H]2C(=O)NC3(CCC3)C(=O)N(C)[C@@H](C3CCCC3)C(=O)N(C)[C@H](C(=O)N(C)C)CC(=O)N(C)[C@@H](COC3CC3)C(=O)N[C@@H]([C@@H](C)CC)C(=O)N(C)CC(=O)N(C)[C@H]3C/C=C\\CCN(C3=O)[C@@H](Cc3ccc(C(F)(F)F)cc3)C(=O)N(C)CC(=O)N[C@@H](CCc3cc(F)c(C(F)(F)F)c(F)c3)C(=O)N2C1"
experimental_readout = "pKd"
readout_value = 10.35

[[record]]
entry_smiles = "CC[C@H](C)[C@@H]1NC(=O)[C@H](CC)N(C)C(=O)C[C@@H](C(=O)N(C)C)N(C)C(=O)[C@H](C2CCCC2)N(C)C(=O)C2(CCC2)NC(=O)[C@@H]2C[C@@H](C(F)(F)F)CN2C(=O)[C@H](CCc2cc(F)c(C(F)(F)F)c(F)c2)NC(=O)CN(C)C(=O)[C@H](CC2CCC(F)(F)CC2)N2CC/C=C\\C[C@@H](C2=O)N(C)C(=O)CN(C)C1=O"
experimental_readout = "pKd"
readout_value = 9.85

